B1: library; numbered along this chain (parent)
chain: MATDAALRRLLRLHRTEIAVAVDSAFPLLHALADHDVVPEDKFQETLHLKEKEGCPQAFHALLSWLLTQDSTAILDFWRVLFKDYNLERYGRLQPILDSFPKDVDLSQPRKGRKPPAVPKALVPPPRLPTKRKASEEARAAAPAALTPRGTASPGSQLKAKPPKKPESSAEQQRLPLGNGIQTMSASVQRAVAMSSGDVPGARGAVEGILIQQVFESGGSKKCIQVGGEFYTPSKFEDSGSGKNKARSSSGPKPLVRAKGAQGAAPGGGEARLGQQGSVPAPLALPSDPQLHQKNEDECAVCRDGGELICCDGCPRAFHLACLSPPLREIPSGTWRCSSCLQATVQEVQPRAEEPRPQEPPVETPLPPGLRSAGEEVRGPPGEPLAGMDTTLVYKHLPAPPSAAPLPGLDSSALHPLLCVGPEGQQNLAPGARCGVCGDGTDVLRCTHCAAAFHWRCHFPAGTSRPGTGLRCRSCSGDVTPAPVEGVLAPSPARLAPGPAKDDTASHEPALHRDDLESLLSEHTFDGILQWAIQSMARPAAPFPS

variants of: B1; assay: AIRE transcriptional activation functional score (insulin promoter-GFP; nonsense median 0, synonymous median 1) (normalised score); higher = higher AIRE activity (more reporter activation); conditions: with insulin promoter-GFP reporter in HEK293
PARAMETER: AIRE transcriptional activation functional score

{"VARIANT CODE": "Q262W", "OBSERVED": 1.26}
{"VARIANT CODE": "I533V", "OBSERVED": 0.411}
{"VARIANT CODE": "F318D", "OBSERVED": 1.02}
{"VARIANT CODE": "L418C", "OBSERVED": 1.16}
{"VARIANT CODE": "A541R", "OBSERVED": 0.198}
{"VARIANT CODE": "Q57E", "OBSERVED": 0.685}
{"VARIANT CODE": "V38W", "OBSERVED": -0.576}
{"VARIANT CODE": "L177V", "OBSERVED": 0.75}
{"VARIANT CODE": "P400Y", "OBSERVED": 1.69}
{"VARIANT CODE": "S156I", "OBSERVED": 1.37}
{"VARIANT CODE": "R465Q", "OBSERVED": 0.443}
